measurement-description: CCTE_Deisenroth_5AR_NBTE_donor: CCTE's 5alpha-reductase NanoBRET Target Engagement Assay […], Deisenroth Lab (AID 2284319)
study-conditions: actives raise or lower the signal
Active and inactive are the calls of the source. The calls were made as follows: active = hit-call score of the fitted dose curve at least 0.9, where 1 is the maximum; inactive = score below 0.9.
Answer with one of the outcomes given here: Y = active, N = inactive

Req: Dear all, I need the recorded test outcome for COc1cc([N+](=O)[O-])ccc1N , thank you.
Resp: N

Req: For this molecule, state the assay outcome: CCCCc1oc2ccccc2c1C(=O)c1cc(I)c(OCCN(CC)CC)c(I)c1
Resp: N

Req: GET /call?item= CCCCCCc1ccc(N)cc1 returns the recorded outcome of this test.
Resp: N

Req: Fill in: this test's call for CCCCCCCCCCCCOS(=O)(=O)O is ___
Resp: Y

Req: Give the logged outcome of this assay for the following molecule: O=C1OC2(c3ccccc31)c1cc(I)c(O)c(I)c1Oc1c2cc(I)c(O)c1I
Resp: Y
